# System: HOP-92
# assay: NCI tumour cell line growth inhibition, 48 h
The source made the active and inactive calls. No stated cut-off is given here; in the data, active = GI50 up to about 1.1 µM and inactive = higher.
In this exercise, the only acceptable responses are 1.0 (active), 0.0 (inactive)

Would you please look over these solved cases?
compound=Clc1ccc(CCn2ccc3ccccc32)c(Cl)c1 category=0.0
compound=CCOC(=O)c1ccc(Nc2nc3ccccc3nc2C(=O)OCC)cc1 category=0.0

Query string: Please share the test call associated with O=C(O)C12C3CCC(C3)C1(C(=O)O)C1CCC2C1 (centres undefined) .
Result string: 0.0

Query string: Please share the test call associated with COc1cc([C@@H]2c3cc4c(cc3[C@@H](Nc3ccc(NC(=O)c5cc(NC(=O)c6cc([N+](=O)[O-])cn6C)cn5C)cc3)[C@H]3COC(=O)[C@H]23)OCO4)cc(OC)c1O .
Result string: 1.0

Query string: Please share the test call associated with COc1c(CC(C)O)c2c3c(CC(C)O)c(OC)c(=O)c4c(O)cc5c(c6c(cc(O)c(c1=O)c62)OCO5)c43 (centres undefined) .
Result string: 0.0

Query string: Please share the test call associated with CCSC1=N/C(=C\c2ccco2)C(Cl)=N1 .
Result string: 0.0

Query string: Please share the test call associated with ClC(/N=N/c1ccccc1)=N/Nc1ccccc1 .
Result string: 0.0

Query string: Please share the test call associated with COc1cc(CNc2ccc3nc4n(c(=O)c3c2)CCCCC4)cc(OC)c1OC .
Result string: 0.0

Query string: Please share the test call associated with Nc1nc(-c2ccc3ccccc3c2)cc(-c2cc(-c3ccc4ccccc4c3)nc(N)n2)n1 .
Result string: 0.0

====

# System: HCT-15
measure: GI50

Field: example entries. Status: answers known.
molecule=COC1(OC)CC(CO)(COc2cc(Cl)nc(N)n2)C1 measure=GI50 result="> 100 µM"
molecule=CCCCCCCCCCCCNC(=S)OC measure=GI50 result="14.6 µM"
molecule=NS(=O)(=O)c1cc2c(cc1Cl)N=C(CCC(=O)O)NS2(=O)=O measure=GI50 result="> 100 µM"
molecule=CN(C)N1C(=O)C(=O)N(c2cccc3ccccc23)C1=O measure=GI50 result="> 10 µM"
molecule=Cc1cccc(N2C(=O)/C(=C/c3ccc(N(CCC#N)CCC#N)cc3C)N=C2c2cc([N+](=O)[O-])ccc2Cl)c1 measure=GI50 result="> 100 µM"
molecule=O=C(N/C(=C\c1ccc(Oc2ccc(Cl)c(Cl)c2)cc1)c1nc2ccccc2[nH]1)c1ccccc1 measure=GI50 result="23.2 µM"
molecule=CO/C(=N\N=Cc1ccccc1)c1ccncc1 measure=GI50 result="> 100 µM"
molecule=Clc1cccc(/C=c2\nc(-c3ccccc3)n3c2nc2ccccc23)c1 measure=GI50 result="> 100 µM"

Please state GI50 for every molecule in the list that follows.
1. O=[N+]([O-])c1ccc(C2=NOC(c3ccccc3F)N2C23CC4CC(CC(C4)C2)C3)cc1 (stereo not given)
2. CC(=O)OCC1OC(n2c3c(c(-c4ccc(Cl)cc4)c(C#N)c2=S)CCCC3)C(OC(C)=O)C(OC(C)=O)C1OC(C)=O (stereo not given)

Result string:
["> 100 µM", "61.2 µM"]

====

# System: RXF 631
# assay: NCI tumour cell line growth inhibition, 48 h
Activity calls are given as the source filed them. Rule as the data show it: active = GI50 up to about 1.1 µM and inactive = higher.
measure: GI50

compound="COC(=O)C1CC(C(=O)OC)c2nc3cc(C)ccc3nc21 (stereo not drawn)" measurementtarget="RXF 631" result="> 100 µM (inactive)"
compound=CNC(=O)NCNC(=O)NC measurementtarget="RXF 631" result="> 100 µM (inactive)"
compound=ClC(/N=N/c1ccccc1)=N/Nc1ccccc1 measurementtarget="RXF 631" result="> 100 µM (inactive)"
compound=CCCOc1ccc(/C=C/c2cc(OC)c(OC)c(OC)c2)cc1 measurementtarget="RXF 631" result="2.03 µM (inactive)"

Please state GI50 for every compound in the list that follows.
1. O=C(/C=C/c1ccc(Cl)c(Cl)c1)c1cccc2ccccc12
2. O=C(O)C12C3CCC(C3)C1(C(=O)O)C1CCC2C1 (stereo not drawn)
3. CCCCCCCCCCCCn1[nH]c(C)c(C(=S)SCCCCCCCC)c1=O
4. N/N=C(\Cc1ccccc1)NN=C(N)N
5. CC1(C)O/C(=C\c2ccccc2)C(=O)/C(=C/c2ccccc2)O1
6. Clc1cc(Cl)cc(C2SCc3nc4ccccc4n32)c1 (stereo not drawn)
7. Cc1cccc(N2C(=O)/C(=C/c3ccc(N(CCC#N)CCC#N)cc3C)N=C2c2cc([N+](=O)[O-])ccc2Cl)c1
8. COc1nc(C(Cl)(Cl)Cl)c(Cl)c(OC)c1Cl [PENCLOMEDINE]

Result string:
["17 µM (inactive)", "> 100 µM (inactive)", "75.7 µM (inactive)", "> 100 µM (inactive)", "33.8 µM (inactive)", "14.2 µM (inactive)", "> 100 µM (inactive)", "17.6 µM (inactive)"]

Query string: // lookup GI50 for Cc1ccc(/N=N/c2ccc(N(CCC#N)CCC#N)cc2C)c(Br)c1
Result string: 4.35 µM (inactive)

Cited source: ChEMBL document CHEMBL1201862
